// provenance: patent US12129238B2

Protocol description: Determination of the mean lethal dose (LD50), oral administration to mice
Assay type: in vivo
Experimental context: mouse, in vivo, po, stabilized suspension in isotonic sodium chloride solution, 14 days observation
Measured parameter: LD50 at 14 days (mg/kg)
Give the value in mg/kg but do not write mg/kg after it.

Report LD50 at 14 days for CCCOC1N=C(c2ccccc2Cl)c2cc(Br)ccc2NC1=O (stereo not shown) [Form I] please.
1120
